System under test: CypF (Homo sapiens (Human), UniProt P30405)
Sequence (P30405 30-207): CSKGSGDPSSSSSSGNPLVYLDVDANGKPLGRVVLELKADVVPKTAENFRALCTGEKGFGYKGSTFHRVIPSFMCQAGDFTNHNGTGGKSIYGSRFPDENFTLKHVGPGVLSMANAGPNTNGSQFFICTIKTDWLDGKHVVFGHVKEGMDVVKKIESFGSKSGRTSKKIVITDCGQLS
Test: Inhibitor binding to cyclophilin proteins by SPR, CypF
Applied conditions: 1:1 binding model
Starred links: 1 amine or outer side, 2 acyl side, 3 side chain; linkers in the order of their positions; H or OH if unused. Non-standard residues stand in square brackets, D forms with d. Residues, ends and D or L forms follow the SMILES beside them. X36 = C[C@H](COCCN(C)CC(F)(F)F)[C@@H](C(=O)[*:2])N(C)[*:1]; X65 = C[C@H](CCN1CCCCC1)[C@@H](C(=O)[*:2])N(C)[*:1]; MeBmt = C/C=C/C[C@@H](C)[C@@H](O)[C@H](NC)C(=O)O; NMeL = CN[C@@H](CC(C)C)C(=O)O; NMeV = CN[C@H](C(=O)O)C(C)C; dNMeA = CN[C@H](C)C(=O)O; Abu = CC[C@H](N)C(=O)O
Experimental readout: CypF Kd (nM)
Give the value, in units of nM, as a plain number.

>>> endpoint_value("C/C=C/C[C@@H](C)[C@@H](O)[C@H]1C(=O)N[C@@H](CC)C(=O)N(C)[C@H](C)C(=O)N(C)[C@@H]([C@H](C)COC(=O)N(C)C2CCN(C)CC2)C(=O)N[C@@H](C(C)C)C(=O)N(C)[C@@H](CC(C)C)C(=O)N[C@@H](C)C(=O)N[C@H](C)C(=O)N(C)[C@@H](CC(C)C)C(=O)N(C)[C@@H](CC(C)C)C(=O)N(C)[C@@H](C(C)C)C(=O)N1C [Compound 2.5.32]")
0.4
>>> endpoint_value("C/C=C/C[C@@H](C)[C@@H](O)[C@H]1C(=O)N[C@@H](CC)C(=O)N(C)[C@H](C)C(=O)N(C)[C@@H]([C@H](C)CCN2CCCCC2)C(=O)N[C@@H](C(C)C)C(=O)N(C)[C@@H](CC(C)C)C(=O)N[C@@H](C)C(=O)N[C@H](C)C(=O)N(C)[C@@H](CC(C)C)C(=O)N(C)[C@@H](CC(C)C)C(=O)N(C)[C@@H](C(C)C)C(=O)N1C [Compound 2.18.8] (cyclo(A[dA][NMeL][NMeL][NMeV][MeBmt][Abu][dNMeA][X65]V[NMeL]))")
0.5
>>> endpoint_value("C/C=C/C[C@@H](C)[C@@H](O)[C@H]1C(=O)N[C@@H](CC)C(=O)N(C)[C@H](C)C(=O)N(C)[C@@H]([C@H](C)COCCN(C)CC(F)(F)F)C(=O)N[C@@H](C(C)C)C(=O)N(C)[C@@H](CC(C)C)C(=O)N[C@@H](C)C(=O)N[C@H](C)C(=O)N(C)[C@@H](CC(C)C)C(=O)N(C)[C@@H](CC(C)C)C(=O)N(C)[C@@H](C(C)C)C(=O)N1C [Compound 2.8.3] (cyclo(A[dA][NMeL][NMeL][NMeV][MeBmt][Abu][dNMeA][X36]V[NMeL]))")
4.1

Task: Given C/C=C/C[C@@H](C)[C@@H](O)[C@H]1C(=O)N[C@@H](CC)C(=O)N(C)[C@H](C)C(=O)N(C)[C@@H]([C@H](C)CCN2CCOCC2)C(=O)N[C@@H](C(C)C)C(=O)N(C)[C@@H](CC(C)C)C(=O)N[C@@H](C)C(=O)N[C@H](C)C(=O)N(C)[C@@H](CC(C)C)C(=O)N(C)[C@@H](CC(C)C)C(=O)N(C)[C@@H](C(C)C)C(=O)N1C (stereo in doubt) [Compound 2.18.1] , report its CypF Kd on CypF (Homo sapiens (Human), UniProt P30405).
Result: 0.9

Task: Report value only: CypF Kd, CypF (Homo sapiens (Human), UniProt P30405), C/C=C/C[C@@H](C)[C@@H](O)[C@H]1C(=O)N[C@@H](CC)C(=O)N(C)[C@H](C)C(=O)N(C)[C@@H]([C@H](C)CCCN2CCC(OC)CC2)C(=O)N[C@@H](C(C)C)C(=O)N(C)[C@@H](CC(C)C)C(=O)N[C@@H](C)C(=O)N[C@H](C)C(=O)N(C)[C@@H](CC(C)C)C(=O)N(C)[C@@H](CC(C)C)C(=O)N(C)[C@@H](C(C)C)C(=O)N1C (stereo in doubt) [Compound 2.19.5]
Result: 0.4
